Target: T1, human TIM3, full length, on cells (human, UniProt Q8TDQ0 22-301)
T1 construct: CHO-K1 cells were transfected with a plasmid for full-length human Tim3; other cells carry endogenous TIM3; also called huTIM-3; CHO-Tim3
Assay: FACS, human CD14+ monocytes, donor3, 10 µg/ml
READOUT_LABEL: Specific Binding [MFI] (MFI)
Use MFI as the unit, but write only the number.

1) anti-TIM3 antibody Tim3_0016 variant (Tim3_0018) (antibody, V domains shown, Mouse monoclonal from hybridoma; also called TIM3-0016 variant (0018); Tim3_0016 variant 0018-A488) VH: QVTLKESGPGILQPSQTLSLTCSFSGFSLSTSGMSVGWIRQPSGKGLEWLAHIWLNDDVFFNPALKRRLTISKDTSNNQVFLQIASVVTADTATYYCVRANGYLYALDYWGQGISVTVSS VL: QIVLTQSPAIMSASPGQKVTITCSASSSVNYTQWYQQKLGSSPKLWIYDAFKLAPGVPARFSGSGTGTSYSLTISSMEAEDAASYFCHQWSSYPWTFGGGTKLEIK ... 1940
2) anti-TIM3 antibody Tim3_0028 (antibody, V domains shown, Mouse monoclonal from hybridoma) VH: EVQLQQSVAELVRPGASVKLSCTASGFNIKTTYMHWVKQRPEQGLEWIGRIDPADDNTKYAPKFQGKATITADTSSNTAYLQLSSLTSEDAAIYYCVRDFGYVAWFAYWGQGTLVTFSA VL: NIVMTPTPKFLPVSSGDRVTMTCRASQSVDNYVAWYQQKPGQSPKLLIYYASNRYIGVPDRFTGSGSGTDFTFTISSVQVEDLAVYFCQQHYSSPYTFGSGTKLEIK ... 1610

The record that follows has no Specific Binding [MFI] shown yet.
// lookup Specific Binding [MFI] for anti-TIM3 antibody Tim3_0030 (antibody, V domains shown, Mouse monoclonal from hybridoma) VH: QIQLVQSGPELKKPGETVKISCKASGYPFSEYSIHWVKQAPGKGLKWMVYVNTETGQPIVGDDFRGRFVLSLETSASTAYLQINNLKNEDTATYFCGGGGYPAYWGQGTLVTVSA VL: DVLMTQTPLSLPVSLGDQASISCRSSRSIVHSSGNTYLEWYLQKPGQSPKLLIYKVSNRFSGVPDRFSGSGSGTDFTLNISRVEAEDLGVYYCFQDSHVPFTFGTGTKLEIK
466
